- test_name: total protein half-life in vivo (active degradation + dilution); higher = more stable protein
- test_parameters: wild type E. coli NCM3722; growth: P-lim chemostat; doubling time 6 h
endpoint_label: total protein half-life in vivo (h)
The figure you give is taken to be in h; do not add the unit.

The measured total protein half-life in vivo associated with "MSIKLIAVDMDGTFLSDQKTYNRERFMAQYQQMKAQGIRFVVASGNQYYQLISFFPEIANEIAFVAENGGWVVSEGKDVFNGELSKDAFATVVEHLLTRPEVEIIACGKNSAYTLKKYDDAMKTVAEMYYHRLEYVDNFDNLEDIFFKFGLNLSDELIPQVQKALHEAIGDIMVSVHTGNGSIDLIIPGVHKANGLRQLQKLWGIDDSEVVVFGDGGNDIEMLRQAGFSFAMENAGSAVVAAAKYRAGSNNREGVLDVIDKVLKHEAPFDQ" reads 2.7

Lab note: "MLRFSANLSMLFGEYDFLARFEKAAQCGFRGVEFMFPYDYDIEELKHVLASNKLEHTLHNLPAGDWAAGERGIACIPGREEEFRDGVAAAIRYARALGNKKINCLVGKTPAGFSSEQIHATLVENLRYAANMLMKEDILLLIEPINHFDIPGFHLTGTRQALKLIDDVGCCNLKIQYDIYHMQRMEGELTNTMTQWADKIGHLQIADNPHRGEPGTGEINYDYLFKVIENSDYNGWVGCEYKPQTTTEAGLRWMDPYR" gave total protein half-life in vivo of 5.52

# total protein half-life in vivo of "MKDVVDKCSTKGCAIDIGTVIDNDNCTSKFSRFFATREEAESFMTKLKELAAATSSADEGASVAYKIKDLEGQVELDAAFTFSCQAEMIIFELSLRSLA" = 4

###

- test_name: total protein half-life in vivo (active degradation + dilution); higher = more stable protein
- test_parameters: E. coli NCM3722 delta-smpB; growth: N-lim chemostat; doubling time 6 h
endpoint_label: total protein half-life in vivo (h)
Respond with the bare value in h.

For this sequence ( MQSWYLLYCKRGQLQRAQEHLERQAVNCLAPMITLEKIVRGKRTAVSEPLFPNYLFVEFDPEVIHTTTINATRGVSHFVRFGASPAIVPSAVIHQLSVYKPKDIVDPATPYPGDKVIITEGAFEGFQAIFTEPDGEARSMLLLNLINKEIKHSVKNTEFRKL [P0AFW0] ), measured total protein half-life in vivo is 2.52

The sequence "MSVRLVLAKGREKSLLRRHPWVFSGAVARMEGKASLGETIDIVDHQGKWLARGAYSPASQIRARVWTFDPSESIDIAFFSRRLQQAQKWRDWLAQKDGLDSYRLIAGESDGLPGITIDRFGNFLVLQLLSAGAEYQRAALISALQTLYPECSIYDRSDVAVRKKEGMELTQGPVTGELPPALLPIEEHGMKLLVDIQHGHKTGYYLDQRDSRLATRRYVENKRVLNCFSYTGGFAVSALMGGCSQVVSVDTSQEALDIARQNVELNKLDLSKAEFVRDDVFKLLRTYRDRGEKFDVIVMDPPKFVENKSQLMGACRGYKDINMLAIQLLNEGGILLTFSCSGLMTSDLFQKIIADAAIDAGRDVQFIEQFRQAADHPVIATYPEGLYLKGFACRVM" showed total protein half-life in vivo equal to 5.25

The recorded total protein half-life in vivo for entry "MSAGRLNKKSLGIVMLLSVGLLLAGCSGSKSSDTGTYSGSVYTVKRGDTLYRISRTTGTSVKELARLNGISPPYTIEVGQKLKLGGAKSSSITRKSTAKSTTKTASVTPSSAVPKSSWPPVGQRCWLWPTTGKVIMPYSTADGGNKGIDISAPRGTPIYAAGAGKVVYVGNQLRGYGNLIMIKHSEDYITAYAHNDTMLVNNGQSVKAGQKIATMGSTDAASVRLHFQIRYRATAIDPLRYLPPQGSKPKC" equals 5.69

Lookup result for "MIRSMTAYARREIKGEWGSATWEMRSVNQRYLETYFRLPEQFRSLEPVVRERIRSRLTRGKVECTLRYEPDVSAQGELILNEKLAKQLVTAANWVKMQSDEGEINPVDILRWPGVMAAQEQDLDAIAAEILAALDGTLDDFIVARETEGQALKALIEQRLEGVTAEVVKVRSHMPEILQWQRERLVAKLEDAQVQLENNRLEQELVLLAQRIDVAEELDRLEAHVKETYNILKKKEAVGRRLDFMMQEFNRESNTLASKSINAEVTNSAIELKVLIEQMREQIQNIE" ; measured total protein half-life in vivo: 4.24

For record "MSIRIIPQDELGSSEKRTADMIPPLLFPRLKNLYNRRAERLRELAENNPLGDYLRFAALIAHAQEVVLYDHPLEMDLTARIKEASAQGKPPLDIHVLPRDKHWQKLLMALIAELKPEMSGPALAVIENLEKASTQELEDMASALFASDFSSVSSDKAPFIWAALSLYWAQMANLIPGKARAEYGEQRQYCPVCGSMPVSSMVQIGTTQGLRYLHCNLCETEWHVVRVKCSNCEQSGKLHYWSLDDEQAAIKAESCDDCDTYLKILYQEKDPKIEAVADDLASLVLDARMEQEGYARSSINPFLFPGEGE" the listed total protein half-life in vivo is 2.78

In plain terms, "MTTYDRNRNAITTGSRVMVSGTGHTGKILSIDTEGLTAEQIRRGKTVVVEGCEEKLAPLDLIRLGMN" has a documented total protein half-life in vivo of 4.42

Measured total protein half-life in vivo, MEYQHWLREAISQLQASESPRRDAEILLEHVTGRGRTFILAFGETQLTDEQCQQLDALLTRRRDGEPIAHLTGVREFWSLPLFVSPATLIPRPDTECLVEQALARLPEQPCRILDLGTGTGAIALALASERPDCEIIAVDRMPDAVSLAQRNAQHLAIKNIHILQSDWFSALAGQQFAMIVSNPPYIDEQDPHLQQGDVRFEPLTALVAADSGMADIVHIIEQSRNALVSGGFLLLEHGWQQGEAVRQAFILAGYHDVETCRDYGDNERVTLGRYYQ [P0ACC1] : 3.23

Briefly, total protein half-life in vivo measured for "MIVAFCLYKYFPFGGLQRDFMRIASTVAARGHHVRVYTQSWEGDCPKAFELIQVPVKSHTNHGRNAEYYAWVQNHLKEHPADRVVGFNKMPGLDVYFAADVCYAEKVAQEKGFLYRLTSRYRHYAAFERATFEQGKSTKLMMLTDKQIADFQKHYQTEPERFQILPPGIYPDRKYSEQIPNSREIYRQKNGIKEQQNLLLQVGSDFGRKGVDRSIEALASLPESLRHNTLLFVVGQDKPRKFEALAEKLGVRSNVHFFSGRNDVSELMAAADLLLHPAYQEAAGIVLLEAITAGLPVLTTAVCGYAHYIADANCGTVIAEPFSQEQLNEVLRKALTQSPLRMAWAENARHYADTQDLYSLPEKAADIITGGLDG" : 5.9

Measured total protein half-life in vivo of MTIKNVICDIDGVLMHDNVAVPGAAEFLHGIMDKGLPLVLLTNYPSQTGQDLANRFATAGVDVPDSVFYTSAMATADFLRRQEGKKAYVVGEGALIHELYKAGFTITDVNPDFVIVGETRSYNWDMMHKAAYFVANGARFIATNPDTHGRGFYPACGALCAGIEKISGRKPFYVGKPSPWIIRAALNKMQAHSEETVIVGDNLRTDILAGFQAGLETILVLSGVSSLDDIDSMPFRPSWIYPSVAEIDVI [P0AF24] : 5.58

Origin of measurements: the supplement of paper PMC11246515
